Where these numbers come from: patent US20230029835A1

# measurement-target: T1, Cynomolgus macaques TSLP recombinant protein (Cynomolgus macaques, UniProt Q969D9 29-159 (human entry), limits assumed, biotinylated in the blocking assays (sites not given))
# T1 construct: also called cyTSLP; biotinylated Cynomolgus macaques TSLP protein
# T1 chain: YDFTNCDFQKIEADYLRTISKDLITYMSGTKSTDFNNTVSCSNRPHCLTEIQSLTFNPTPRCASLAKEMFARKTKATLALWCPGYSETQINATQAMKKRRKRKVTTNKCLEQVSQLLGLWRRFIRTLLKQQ
# experimental-details: competition ELISA, biotin-cynomolgus TSLP to coated cynomolgus TSLPR-Fc
measurement-kind: pIC50
// pIC50 here means minus log10 of the molar concentration (mol/L)

binder="Murine anti-39G5 (mAb39G5) (antibody, V domains shown, also called murine antibody 39G5) VH: QVQLLQSGPQLVRPGASVKISCKASGYSFISYWIHWVKQRPGQGLEWIGIIDPSDSDTSLNQKFKDKATLTVDKSSTTAYIQLSSPTSEDSAVYYCARSLDGYYDYWGQGTTLTVSS VL: DIQMTQSPASLSASVGETVTITCRASENIYSYLAWYQQKQGKSPQLLVYNARTLPEGVPSRFSGSGSGTQFSLKINSLQPEDFGIYYCQHHYTTPWTFGGGTKLEIK" reading=8.80

Field request: pIC50 | item: Ab8 (antibody, V domains shown, Humanized; also called h39G5VHv8/h39G5VKv1) VH: EVQLVQSGAEVKKPGESLKISCKASGYTFTDYWMHWVRQMPGKGLEWMGIIDPSDSDTSLNQSFQGHVTLSVDKSSTTAYLQWSSLKASDTAMYYCARSLDGYYDYWGQGTLVTVSS VL: DIQMTQSPSSLSASVGDRVTITCRASENIYSYLAWYQQKPGKAPKLLIYNARTLPEGVPSRFSGSGSGTDFTLTISSLQPEDFATYYCQHHYTTPWTFGQGTKVEIK
9.00

Please give the result for Ab20 (antibody, V domains shown, Humanized; also called h71G4VHv2/h71G4VKv1) VH: QVQLVQSGAEVKKPGSSVKVSCKASGYTFTDYWMHWVRQAPGQGLEWMGTIDNSDSDTTYNQKFQGRVTLTVDTSTSTAYMELSSLRSEDTAVYYCARSVDGYLDYWGQGTLVTVSS VL: DIQMTQSPSSLSASVGDRVTITCRTSENIYSYLAWYQQKPGKAPKLLIYFAKTLTDGVPSRFSGSGSGTDFTLTISSLQPEDFATYYCQHHYGTPWTFGQGTKVEIK too.
8.88

Please give the result for Ab26 (antibody, V domains shown, Humanized; also called h39G5VHv10/h71G4VKv1; h39G5VHv10/h71G4VKv1 hIgG1) VH: QVQLVQSGAEVKKPGSSVKVSCKASGYTFTDYWMHWVRQAPGQGLEWMGIIDPSDSDTSLNQKFQGRVTITADTSTSTAYMELSSLRSEDTAVYYCARSLDGYYDYWGQGTLVTVSS VL: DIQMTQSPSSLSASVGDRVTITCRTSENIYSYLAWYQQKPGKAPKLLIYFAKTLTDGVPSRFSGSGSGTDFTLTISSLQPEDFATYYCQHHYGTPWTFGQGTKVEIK too.
9.16
